- tested_on: Histone deacetylase 7 (Homo sapiens)
- Sequence (Q8WUI4 whole entry): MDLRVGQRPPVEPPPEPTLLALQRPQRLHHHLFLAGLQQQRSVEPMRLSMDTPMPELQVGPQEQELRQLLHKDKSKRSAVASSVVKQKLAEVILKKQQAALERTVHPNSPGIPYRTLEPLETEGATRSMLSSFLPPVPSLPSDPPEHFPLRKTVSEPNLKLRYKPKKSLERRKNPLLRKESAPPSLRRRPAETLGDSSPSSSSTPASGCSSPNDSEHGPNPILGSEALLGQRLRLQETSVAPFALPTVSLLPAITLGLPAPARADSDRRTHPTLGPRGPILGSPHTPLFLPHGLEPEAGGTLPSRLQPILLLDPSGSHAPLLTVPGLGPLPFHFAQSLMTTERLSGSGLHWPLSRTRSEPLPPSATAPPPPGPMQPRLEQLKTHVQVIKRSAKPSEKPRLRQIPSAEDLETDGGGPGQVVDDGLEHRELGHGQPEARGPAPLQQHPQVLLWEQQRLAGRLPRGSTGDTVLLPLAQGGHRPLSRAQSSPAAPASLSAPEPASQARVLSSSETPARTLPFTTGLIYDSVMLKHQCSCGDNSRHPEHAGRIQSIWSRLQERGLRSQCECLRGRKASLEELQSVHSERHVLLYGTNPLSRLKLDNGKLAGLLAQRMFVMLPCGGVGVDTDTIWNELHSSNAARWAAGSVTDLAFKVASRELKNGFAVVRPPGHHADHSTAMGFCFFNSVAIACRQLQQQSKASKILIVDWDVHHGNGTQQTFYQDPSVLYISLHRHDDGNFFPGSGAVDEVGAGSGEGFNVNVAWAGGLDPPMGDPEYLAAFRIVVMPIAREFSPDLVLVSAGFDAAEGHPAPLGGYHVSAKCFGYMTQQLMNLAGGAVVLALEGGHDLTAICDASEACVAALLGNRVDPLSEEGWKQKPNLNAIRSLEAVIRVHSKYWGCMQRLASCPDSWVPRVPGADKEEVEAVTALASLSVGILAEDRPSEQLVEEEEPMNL
pIC50: −log10 of the molar value.
// values below are reported pIC50
parameter_measured: pIC50

[[record]]
compound_string = "CC[C@H](C)[C@H]1NC(=O)[C@H]2CSSCC/C=C/[C@H](CC(=O)N[C@H](CCSC)C(=O)N2)OC(=O)C[C@@H]1O"
result = "< 4.30"

[[record]]
compound_string = "C/C=C1\\NC(=O)[C@H]2CSSCC/C=C/[C@H](CC(=O)N[C@H](C(C)C)C(=O)N2)OC(=O)[C@H](C(C)C)NC1=O"
result = "< 4.30"


----------
- tested_on: Histone deacetylase 8 (Homo sapiens, UniProt Q9BY41)
// values below are reported IC50
parameter_measured: IC50 (µM)

[[record]]
compound_string = "CC[C@H](C)[C@H]1NC(=O)[C@H]2CSSCC/C=C/[C@H](CC(=O)N[C@H](CCSC)C(=O)N2)OC(=O)C[C@@H]1O"
parameter_measured = "IC50"
unit_name = "µM"
result_qualifier = ">"
readout_number = 50

[[record]]
compound_string = "CCCC[C@H]1NC(=O)C[C@H]2/C=C/CCSSC[C@@H](NC1=O)C(=O)N[C@H]([C@@H](C)CC)[C@@H](O)CC(=O)O2"
parameter_measured = "IC50"
unit_name = "µM"
result_qualifier = "="
readout_number = 30


----------
- tested_on: Protein deacetylase HDAC6 (Homo sapiens)
- Sequence (Q9UBN7 whole entry): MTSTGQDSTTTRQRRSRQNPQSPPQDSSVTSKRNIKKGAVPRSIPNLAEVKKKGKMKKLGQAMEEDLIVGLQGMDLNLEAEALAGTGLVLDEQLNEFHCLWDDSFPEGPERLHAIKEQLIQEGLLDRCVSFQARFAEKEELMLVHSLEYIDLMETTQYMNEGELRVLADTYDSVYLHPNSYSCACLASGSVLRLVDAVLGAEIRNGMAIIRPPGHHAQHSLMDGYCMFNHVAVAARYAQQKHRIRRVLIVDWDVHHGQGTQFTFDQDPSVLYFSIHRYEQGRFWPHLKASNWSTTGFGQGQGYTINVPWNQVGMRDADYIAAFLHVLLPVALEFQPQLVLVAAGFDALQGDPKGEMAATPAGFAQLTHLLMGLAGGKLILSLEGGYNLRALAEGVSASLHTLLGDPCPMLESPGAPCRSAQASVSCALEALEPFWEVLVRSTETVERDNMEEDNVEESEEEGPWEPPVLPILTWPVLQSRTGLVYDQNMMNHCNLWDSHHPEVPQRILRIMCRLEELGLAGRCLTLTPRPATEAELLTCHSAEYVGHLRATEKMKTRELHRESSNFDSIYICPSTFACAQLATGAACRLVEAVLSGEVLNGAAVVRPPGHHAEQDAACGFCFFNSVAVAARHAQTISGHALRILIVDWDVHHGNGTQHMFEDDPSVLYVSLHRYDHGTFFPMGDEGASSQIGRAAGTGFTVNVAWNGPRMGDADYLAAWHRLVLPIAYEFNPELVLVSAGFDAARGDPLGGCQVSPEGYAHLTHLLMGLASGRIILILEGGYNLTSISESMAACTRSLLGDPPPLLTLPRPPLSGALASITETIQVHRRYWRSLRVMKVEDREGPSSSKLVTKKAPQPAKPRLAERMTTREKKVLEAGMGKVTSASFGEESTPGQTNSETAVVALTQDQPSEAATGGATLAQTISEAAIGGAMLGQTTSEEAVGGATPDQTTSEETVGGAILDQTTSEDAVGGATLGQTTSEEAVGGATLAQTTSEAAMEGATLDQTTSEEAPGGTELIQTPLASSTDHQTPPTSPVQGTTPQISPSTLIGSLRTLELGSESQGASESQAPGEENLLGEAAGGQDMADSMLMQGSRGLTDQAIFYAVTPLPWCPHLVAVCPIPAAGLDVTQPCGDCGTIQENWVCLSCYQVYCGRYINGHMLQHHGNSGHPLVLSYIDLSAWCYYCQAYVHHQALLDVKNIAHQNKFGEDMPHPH
- experiment: Inhibition of recombinant human HDAC6 using Boc-L-Lys(epsilon-acetyl)-AMC as substrate by two-step fluorogenic assay
pIC50: −log10 of the molar value.
// values below are reported pIC50
parameter_measured: pIC50

[[record]]
compound = "CC[C@H](C)[C@H]1NC(=O)[C@H]2CSSCC/C=C/[C@H](CC(=O)N[C@H](CCSC)C(=O)N2)OC(=O)C[C@@H]1O [THAILANDEPSIN A]"
parameter_measured = "pIC50"
readout_number = 5.00

[[record]]
compound = "CCCC[C@H]1NC(=O)C[C@H]2/C=C/CCSSC[C@@H](NC1=O)C(=O)N[C@H]([C@@H](C)CC)[C@@H](O)CC(=O)O2 [THAILANDEPSIN B]"
parameter_measured = "pIC50"
readout_number = 4.96


----------
- tested_on: Histone deacetylase 1/Nuclear receptor corepressor 2 (Homo sapiens, UniProt Q13547)
- Sequence (Q13547 whole entry): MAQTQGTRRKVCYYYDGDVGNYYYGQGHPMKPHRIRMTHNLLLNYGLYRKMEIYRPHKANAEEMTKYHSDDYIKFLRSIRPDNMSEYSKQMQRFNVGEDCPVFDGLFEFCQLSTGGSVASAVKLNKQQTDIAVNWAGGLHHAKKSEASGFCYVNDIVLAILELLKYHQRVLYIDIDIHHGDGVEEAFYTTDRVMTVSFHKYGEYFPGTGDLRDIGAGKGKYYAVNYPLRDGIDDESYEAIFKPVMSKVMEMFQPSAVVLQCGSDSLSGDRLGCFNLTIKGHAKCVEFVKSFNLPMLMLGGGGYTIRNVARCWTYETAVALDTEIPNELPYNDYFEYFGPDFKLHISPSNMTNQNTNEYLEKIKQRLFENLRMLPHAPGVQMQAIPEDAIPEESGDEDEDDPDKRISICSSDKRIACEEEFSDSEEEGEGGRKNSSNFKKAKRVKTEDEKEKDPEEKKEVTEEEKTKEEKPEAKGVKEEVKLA
- Sequence (Q9Y618 whole entry, further chain): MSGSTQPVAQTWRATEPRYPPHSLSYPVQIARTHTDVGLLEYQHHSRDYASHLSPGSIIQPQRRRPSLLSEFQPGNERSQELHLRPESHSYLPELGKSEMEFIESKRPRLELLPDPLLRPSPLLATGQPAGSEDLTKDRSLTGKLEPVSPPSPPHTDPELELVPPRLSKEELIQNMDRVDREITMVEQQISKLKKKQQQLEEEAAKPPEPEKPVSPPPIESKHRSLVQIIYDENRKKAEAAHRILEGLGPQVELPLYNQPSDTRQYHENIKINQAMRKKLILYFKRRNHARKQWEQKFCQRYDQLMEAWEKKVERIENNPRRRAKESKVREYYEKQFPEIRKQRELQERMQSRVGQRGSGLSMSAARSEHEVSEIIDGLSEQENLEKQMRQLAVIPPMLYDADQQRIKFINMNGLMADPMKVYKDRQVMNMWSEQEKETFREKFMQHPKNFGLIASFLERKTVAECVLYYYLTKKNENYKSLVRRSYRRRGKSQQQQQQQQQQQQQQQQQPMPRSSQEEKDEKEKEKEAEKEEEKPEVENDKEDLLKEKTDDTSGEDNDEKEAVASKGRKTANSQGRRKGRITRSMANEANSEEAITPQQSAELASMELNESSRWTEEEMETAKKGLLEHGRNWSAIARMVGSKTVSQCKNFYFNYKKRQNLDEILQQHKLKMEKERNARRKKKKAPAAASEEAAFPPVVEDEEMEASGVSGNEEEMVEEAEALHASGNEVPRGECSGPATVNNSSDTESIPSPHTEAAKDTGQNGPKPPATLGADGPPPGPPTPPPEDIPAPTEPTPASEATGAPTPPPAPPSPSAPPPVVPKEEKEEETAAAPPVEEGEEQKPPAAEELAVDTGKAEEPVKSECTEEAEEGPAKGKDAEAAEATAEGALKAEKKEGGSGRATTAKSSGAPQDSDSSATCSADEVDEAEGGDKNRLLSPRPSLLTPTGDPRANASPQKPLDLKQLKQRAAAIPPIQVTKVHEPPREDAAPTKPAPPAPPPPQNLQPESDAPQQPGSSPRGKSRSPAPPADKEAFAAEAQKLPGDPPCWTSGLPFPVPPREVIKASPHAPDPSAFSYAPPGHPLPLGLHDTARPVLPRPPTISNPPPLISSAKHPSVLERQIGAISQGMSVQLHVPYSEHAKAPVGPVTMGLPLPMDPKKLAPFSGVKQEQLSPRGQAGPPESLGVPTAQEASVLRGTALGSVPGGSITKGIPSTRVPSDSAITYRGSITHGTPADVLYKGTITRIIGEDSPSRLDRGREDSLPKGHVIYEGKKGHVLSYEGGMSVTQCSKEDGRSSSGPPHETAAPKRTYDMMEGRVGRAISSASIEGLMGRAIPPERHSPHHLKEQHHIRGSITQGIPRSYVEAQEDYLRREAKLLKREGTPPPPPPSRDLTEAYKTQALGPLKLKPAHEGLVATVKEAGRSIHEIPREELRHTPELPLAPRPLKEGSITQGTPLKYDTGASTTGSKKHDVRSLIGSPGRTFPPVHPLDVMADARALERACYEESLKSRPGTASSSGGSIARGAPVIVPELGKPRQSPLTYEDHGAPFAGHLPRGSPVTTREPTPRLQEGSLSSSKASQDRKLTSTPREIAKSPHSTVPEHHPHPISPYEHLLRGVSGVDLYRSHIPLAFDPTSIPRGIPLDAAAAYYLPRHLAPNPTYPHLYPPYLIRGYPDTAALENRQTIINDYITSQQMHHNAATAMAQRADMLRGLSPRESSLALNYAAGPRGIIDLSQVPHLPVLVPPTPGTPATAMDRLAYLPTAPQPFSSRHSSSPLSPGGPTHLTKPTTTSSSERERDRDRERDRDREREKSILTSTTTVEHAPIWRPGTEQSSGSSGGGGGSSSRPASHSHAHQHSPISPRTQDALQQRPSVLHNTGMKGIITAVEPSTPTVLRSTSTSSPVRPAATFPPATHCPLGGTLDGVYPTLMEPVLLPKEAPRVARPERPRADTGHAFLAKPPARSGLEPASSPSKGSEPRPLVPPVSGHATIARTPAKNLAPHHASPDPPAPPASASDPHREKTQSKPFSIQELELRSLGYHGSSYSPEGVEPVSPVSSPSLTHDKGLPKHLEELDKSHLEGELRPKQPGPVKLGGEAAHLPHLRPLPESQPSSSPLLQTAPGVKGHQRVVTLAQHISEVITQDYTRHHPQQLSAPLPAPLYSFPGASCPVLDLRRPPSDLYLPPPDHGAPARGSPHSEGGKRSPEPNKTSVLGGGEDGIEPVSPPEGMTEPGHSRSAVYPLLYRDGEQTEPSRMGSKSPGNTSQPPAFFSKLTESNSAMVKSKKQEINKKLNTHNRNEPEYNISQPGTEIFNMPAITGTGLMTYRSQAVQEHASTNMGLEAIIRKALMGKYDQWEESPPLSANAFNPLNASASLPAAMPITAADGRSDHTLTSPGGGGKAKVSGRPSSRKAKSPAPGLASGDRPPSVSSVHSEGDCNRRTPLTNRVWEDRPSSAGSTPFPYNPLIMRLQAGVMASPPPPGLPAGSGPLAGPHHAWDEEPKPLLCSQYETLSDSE
- experiment: Inhibition of recombinant human HDAC1/NCOR2 using Boc-L-Lys(epsilon-acetyl)-AMC as substrate by two-step fluorogenic assay
pIC50: −log10 of the molar value.
parameter_measured: pIC50

[[record]]
compound_string = "CC[C@H](C)[C@H]1NC(=O)[C@H]2CSSCC/C=C/[C@H](CC(=O)N[C@H](CCSC)C(=O)N2)OC(=O)C[C@@H]1O"
parameter_measured = "pIC50"
readout_number = 5.12

[[record]]
compound_string = "CCCC[C@H]1NC(=O)C[C@H]2/C=C/CCSSC[C@@H](NC1=O)C(=O)N[C@H]([C@@H](C)CC)[C@@H](O)CC(=O)O2"
parameter_measured = "pIC50"
readout_number = 5.11

[[record]]
compound_string = "C/C=C1\\NC(=O)[C@H]2CSSCC/C=C/[C@H](CC(=O)N[C@H](C(C)C)C(=O)N2)OC(=O)[C@H](C(C)C)NC1=O"
parameter_measured = "pIC50"
readout_number = 5.17


----------
- tested_on: Histone deacetylase 9 (Homo sapiens)
- Sequence (Q9UKV0 whole entry): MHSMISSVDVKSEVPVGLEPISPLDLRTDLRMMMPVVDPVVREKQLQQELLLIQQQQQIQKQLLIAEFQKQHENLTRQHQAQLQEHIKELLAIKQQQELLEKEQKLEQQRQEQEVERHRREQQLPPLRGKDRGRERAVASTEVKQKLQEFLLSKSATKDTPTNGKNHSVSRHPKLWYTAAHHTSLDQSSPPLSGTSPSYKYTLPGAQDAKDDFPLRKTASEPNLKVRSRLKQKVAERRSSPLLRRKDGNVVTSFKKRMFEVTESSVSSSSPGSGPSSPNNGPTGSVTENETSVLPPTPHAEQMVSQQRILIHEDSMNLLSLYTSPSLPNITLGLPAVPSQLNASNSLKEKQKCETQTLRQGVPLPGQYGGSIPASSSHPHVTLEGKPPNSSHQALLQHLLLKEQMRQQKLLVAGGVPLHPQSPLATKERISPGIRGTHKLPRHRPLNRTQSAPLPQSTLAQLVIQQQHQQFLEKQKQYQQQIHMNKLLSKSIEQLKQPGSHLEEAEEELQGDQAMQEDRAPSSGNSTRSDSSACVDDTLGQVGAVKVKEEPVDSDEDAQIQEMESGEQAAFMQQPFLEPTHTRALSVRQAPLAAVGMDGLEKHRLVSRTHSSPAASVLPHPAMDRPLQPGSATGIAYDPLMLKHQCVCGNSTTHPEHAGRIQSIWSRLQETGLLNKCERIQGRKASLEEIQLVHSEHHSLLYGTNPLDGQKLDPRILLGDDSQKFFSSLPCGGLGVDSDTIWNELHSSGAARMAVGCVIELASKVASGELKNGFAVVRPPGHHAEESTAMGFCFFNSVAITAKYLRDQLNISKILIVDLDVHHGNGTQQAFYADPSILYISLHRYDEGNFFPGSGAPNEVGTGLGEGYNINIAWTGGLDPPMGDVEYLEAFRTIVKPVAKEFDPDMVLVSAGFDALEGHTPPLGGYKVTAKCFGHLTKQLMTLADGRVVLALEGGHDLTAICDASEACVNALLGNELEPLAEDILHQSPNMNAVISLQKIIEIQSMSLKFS
parameter_measured: IC50

[[record]]
compound = "CC[C@H](C)[C@H]1NC(=O)[C@H]2CSSCC/C=C/[C@H](CC(=O)N[C@H](CCSC)C(=O)N2)OC(=O)C[C@@H]1O [THAILANDEPSIN A]"
result = "> 50 µM"

[[record]]
compound = "CCCC[C@H]1NC(=O)C[C@H]2/C=C/CCSSC[C@@H](NC1=O)C(=O)N[C@H]([C@@H](C)CC)[C@@H](O)CC(=O)O2 [THAILANDEPSIN B]"
result = "> 50 µM"

[[record]]
compound = "C/C=C1\\NC(=O)[C@H]2CSSCC/C=C/[C@H](CC(=O)N[C@H](C(C)C)C(=O)N2)OC(=O)[C@H](C(C)C)NC1=O [ROMIDEPSIN]"
result = "> 50 µM"

